- Tested on: Helicobacter pylori standard strain ATCC 43504
- protocol.summary: Antibacterial potency test (MIC), Columbia agar medium, Pharmacological Test Example 1
- Assay type: cell-based
- assay.context: ATCC43504, 72 h, ATCC 43504, 37° C., pH 7.0, 3 days, read-out: MIC
Assign MIC to each entry below.
Form entry: value (µg/mL) — number only.

// MIC lookup, molecule = CCCCCCCCCCOc1ccnc(CSc2nc3ccccc3[nH]2)c1C [Reference Example 5] , result: 3

// MIC lookup, molecule = CCCCOc1ccnc(CSc2nc3ccccc3[nH]2)c1C [Example 4] , result: 0.3

// MIC lookup, molecule = CCCCCOc1ccnc(CSc2nc3ccccc3[nH]2)c1C [Example 1] , result: 0.1

// MIC lookup, molecule = CCCCCCOc1ccnc(C[S+]([O-])c2nc3ccccc3[nH]2)c1C (racemic) [Reference Example 7] , result: 3

====

Assign Residual ratio at pH 2 to each entry below.
- protocol.summary: Stability test in acidic hydrochloric acid solution (pH 2), residual ratio by HPLC
- Assay type: physicochemical
- assay.context: 30 min, pH 2 HCl, 37° C.
Form entry: value (%) — number only.

// Residual ratio at pH 2 lookup, molecule = Cc1c(OCC(F)(F)F)ccnc1C[S+]([O-])c1nc2ccccc2[nH]1 (stereo not shown) [LAZ, Lansoprazole] , result: 0

// Residual ratio at pH 2 lookup, molecule = CCCCCOc1ccnc(CSc2nc3ccccc3[nH]2)c1C [Example 1] , result: 100

// Residual ratio at pH 2 lookup, molecule = CCCCCCCOc1ccnc(CSc2nc3ccccc3[nH]2)c1C [Example 3] , result: 100

// Residual ratio at pH 2 lookup, molecule = CCCCCOc1ccnc(C[S+]([O-])c2nc3ccccc3[nH]2)c1C (racemic) [Reference Example 6] , result: 0

// Residual ratio at pH 2 lookup, molecule = CCCCCCCOc1ccnc(C[S+]([O-])c2nc3ccccc3[nH]2)c1C (racemic) [Reference Example 8] , result: 0

// Residual ratio at pH 2 lookup, molecule = CCCCCCOc1ccnc(CSc2nc3ccccc3[nH]2)c1C [Example 2] , result: 100

// Residual ratio at pH 2 lookup, molecule = CCCCCCOc1ccnc(C[S+]([O-])c2nc3ccccc3[nH]2)c1C (racemic) [Reference Example 7] , result: 0

====

- protocol.summary: Stability test in acidic hydrochloric acid solution (pH 2), residual ratio by HPLC
- Type: physicochemical
- assay.context: 2 hours, pH 2 HCl, 37° C.
Assign Residual ratio at pH 2 to each entry below.
Form entry: value (%) — number only.

// Residual ratio at pH 2 lookup, compound = `CCCCCCCOc1ccnc(CSc2nc3ccccc3[nH]2)c1C` , result: 100

// Residual ratio at pH 2 lookup, compound = `CCCCCOc1ccnc(CSc2nc3ccccc3[nH]2)c1C` , result: 100

// Residual ratio at pH 2 lookup, compound = CCCCCCOc1ccnc(C[S+]([O-])c2nc3ccccc3[nH]2)c1C (racemic) [Reference Example 7] , result: 0

// Residual ratio at pH 2 lookup, compound = `CCCCCCOc1ccnc(CSc2nc3ccccc3[nH]2)c1C` , result: 100

// Residual ratio at pH 2 lookup, compound = CCCCCOc1ccnc(C[S+]([O-])c2nc3ccccc3[nH]2)c1C (racemic) [Reference Example 6] , result: 0

// Residual ratio at pH 2 lookup, compound = CCCCCCCOc1ccnc(C[S+]([O-])c2nc3ccccc3[nH]2)c1C (racemic) [Reference Example 8] , result: 0

// Residual ratio at pH 2 lookup, compound = Cc1c(OCC(F)(F)F)ccnc1C[S+]([O-])c1nc2ccccc2[nH]1 (stereo not shown) , result: 0
